Parameter GI50: see the listing below.
Tested on: NCI-H23
Assay: NCI tumour cell line growth inhibition, 48 h
Activity calls are given as the source filed them. Cut-off read from the data, not from the text of the source: active = GI50 up to about 1.1 µM and inactive = higher.
observation_type: GI50

1) COC(=O)C1(O)c2ccccc2N=C2C(=O)c3ccccc3N21 (stereo not given) = > 100 µM (inactive)
2) Cn1c(-c2ccccc2)c/c(=N\NS(C)(=O)=O)c2cc(S(=O)(=O)O)ccc21 = > 100 µM (inactive)
3) NC(=O)C[C@H](NC(=O)C1(NC(=O)[C@H](Cc2ccc(CP(=O)(O)O)cc2)NC(=O)C(=O)O)CCCCC1)C(=O)NCCCc1cccc2ccccc12 = > 10 µM (inactive)
4) CC(=O)N(O)Cc1ccccc1 = > 100 µM (inactive)
5) COc1c2ccoc2c(OC)c2oc(=O)ccc12 = > 100 µM (inactive)
